Item-by-item account of koff
Biological target: T1, hIL2-DM-his (human, UniProt P60568 21-153)
T1 construct: expressed in ExpiCHO-S cells, nickel-column purified; also called hIL-2 mutein containing two point mutations K64G and N90R (with a his-tag); not shown: his-tag
T1 sequence (P60568 21-153 K84G/N110R): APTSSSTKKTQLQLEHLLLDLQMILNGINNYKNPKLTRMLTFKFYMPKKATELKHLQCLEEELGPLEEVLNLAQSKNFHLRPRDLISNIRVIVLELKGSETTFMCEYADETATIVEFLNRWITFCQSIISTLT
Experiment: BLI ForteBio, Ab on Protein A sensor
Answer format: numeric, s⁻¹ implied, no suffix.

- binder: "K1G12 (antibody, V domains shown) VH: QVQLVQSGAEVKKPGATVKISCKVSGDTITAYYMHWVRQAPGQGLEWIGRIDPDDDSTKYAENFKGRVTITADTSTDTAYMELSSLRSEDTAVYYCTTITFLYTRELRWFAYWGQGTLVTVSS VL: DIVLTQSPATLSLSPGERATLSCQASQYISNYLSWYQQKPGQAPRLLIYQATSLASGIPARFSGSRSGTDFTLTISSLEPEDFAVYYCLQHYSTPYTFGQGTKLEIK"
  measurementType: "koff"
  assayResult: 0.000396

Q) Given the entry K2G8 (antibody, V domains shown) VH: QVQLVQSGAEVKKPGATVKISCKVSGDTITAYYMHWVRQAPGQGLEWIGRIDPEDDSTKYAENFKGRVTITADTSTDTAYMELSSLRSEDTAVYYCTTITFLYSRELRWFAYWGQGTLVTVSS VL: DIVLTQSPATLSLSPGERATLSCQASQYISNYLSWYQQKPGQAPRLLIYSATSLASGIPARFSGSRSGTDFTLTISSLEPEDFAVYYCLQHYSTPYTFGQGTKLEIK , report its measured koff.
A) 0.000507
